Numbers sourced from PubChem BioAssay.

target: E3 ubiquitin-protein ligase XIAP (Homo sapiens); test: XIAP binders, primary screen, biophysical, small-molecule microarray, fluorescence 635 nm (AID 1181); conditions: small-molecule microarray binding, higher = more signal;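 also: score merges 667 nm emission and signal to noise over triplicate slides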
parameter measured: composite z-score
Respond with the number and no other words.

Here are 2 compounds together with their reported answers.
>  <compound>
COC(=O)[C@@]1(Cc2ccc(OC)cc2)[C@H]2c3cc(C(=O)N4CCCC4)n(CCN4CNCC4=O)c3C[C@H]2CN1C(=O)c1ccccc1

>  <quantitative readout>
0.778

$$$$
>  <compound>
CCCC#C[Si](O[C@H](CC)c1cn(Cc2cccc(Cl)c2)nn1)(C(C)C)C(C)C

>  <quantitative readout>
-0.0855

$$$$

Would you mind telling me what composite z-score value was observed for COc1ccc(C(O)C2C=CC3C(=O)N(Cc4ccccc4)C(=O)C3N2n2cnnc2)cc1OCc1ccccc1 (stereo not drawn) ?
0.035

Would you mind telling me what composite z-score value was observed for CC(C)C(CO)N1C(=O)[C@@H]2C3C(=O)OCCC/C=C\[C@H]3OC23C=CCN(CCN2CCOCC2)C(=O)[C@@H]13 (stereo partly drawn) ?
0.0191

Would you mind telling me what composite z-score value was observed for CO[C@H]1O[C@H](CO)[C@@H](OC(=O)Nc2ccccc2)[C@H](OC(=O)Nc2ccccc2)[C@@H]1OC(=O)Nc1ccccc1 ?
0.178

Would you mind telling me what composite z-score value was observed for C=CC[C@]1(C(=O)NCc2ccccc2)N=C(c2ccc(OCCCO)cc2)O[C@H]1c1ccccc1N=[N+]=[N-] ?
0.0623

Would you mind telling me what composite z-score value was observed for C=CCNC(=O)[C@@H]1[C@H]2C(=O)O[C@H](c3ccccc3)[C@H](c3ccccc3)N2[C@H](c2ccc(O)cc2)[C@@]12C(=O)N(C(=O)OCCOC)c1ccc(C#CCNC(N)=O)cc12 ?
-0.17

Would you mind telling me what composite z-score value was observed for CCCCCCc1nc(-c2cc(C)c(OC)c(C)c2)cc2c1[Si](C(C)C)(C(C)C)OC2 ?
0.0537
